target: PAR4 (Homo sapiens (Human)); assay: FLIPR assay in PAR4-expressing HEK293 cells (PAR4 antagonist activity); assay type: cell-based; settings: inhibition of H-Ala-Phe(4-F)-Pro-Gly-Trp-Leu-Val-Lys-Asn-Gly-NH2-induced intracellular calcium mobilization
Sequence (Q96RI0 18-385): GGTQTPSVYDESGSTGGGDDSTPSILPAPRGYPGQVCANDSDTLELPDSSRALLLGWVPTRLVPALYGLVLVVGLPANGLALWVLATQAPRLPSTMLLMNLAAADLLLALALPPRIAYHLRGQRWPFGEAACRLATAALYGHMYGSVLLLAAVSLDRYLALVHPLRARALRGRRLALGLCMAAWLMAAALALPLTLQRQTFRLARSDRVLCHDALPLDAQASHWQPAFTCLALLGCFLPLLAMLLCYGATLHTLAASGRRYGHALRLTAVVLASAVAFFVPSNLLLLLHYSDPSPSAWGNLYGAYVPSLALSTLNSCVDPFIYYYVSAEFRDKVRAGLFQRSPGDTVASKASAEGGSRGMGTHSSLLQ
# EC50 annotations
Please reply with the bare figure in nM and do not write the unit itself.

Solved entries:
1) COc1cc(OCc2cccc(NC(=O)c3cc(F)cc(C(F)(F)F)c3)c2)c2cc(-c3cn4nc(OC)sc4n3)oc2c1 = 1.3
2) COc1cc(OCc2ccc3c(c2)N(C(=O)c2ccccc2C)CC3)c2cc(-c3cn4nc(OC)sc4n3)oc2c1 = 3.1

Hi! What's the reported EC50 for COc1cc(OCc2cccc(NC(=O)C(C)(C)Oc3ccccc3)c2)c2cc(-c3cn4nc(OC)sc4n3)oc2c1 on PAR4 (Homo sapiens (Human))?
1.4
